Sourced from ChEMBL document CHEMBL1201862

test system: SF-268; assay: NCI tumour cell line growth inhibition, 48 h
Calls of active or inactive are those of the source. Cut-off read from the data, not from the text of the source: active = GI50 up to about 1.1 µM and inactive = higher.
Outcome codes: YES (active), NO (inactive)

>>> df
                      smiles_representation  experimental_target  class
0  CCCCCCCCCc1cc(-c2ccc(C=O)s2)sc1-c1ccc(C=O)s1               SF-268     NO
1  COc1ccc2c(c1)c(=O)c1c(NCCCN(C)CCCNc3ccc4c(=O)n(CCN(C)C)c(=O)n5c6ccc(OC)cc6c(=O)c3c45)ccc3c(=O)n(CCN(C)C)c(=O)n2c31               SF-268    YES
2  O[C@H]1[C@H](O)[C@H](O)CN2CCC[C@@H](O)[C@H]12               SF-268     NO
3      C/C(=N\Nc1nc2ccccc2o1)c1cc2ccccc2cn1               SF-268    YES
4     CC(C)(C)c1ccc(-c2nc3ccccc3c(=O)o2)cc1               SF-268     NO

----------
tested on: OVCAR-8; experiment: NCI tumour cell line growth inhibition, 48 h
The source made the active and inactive calls. Rule as the data show it: active = GI50 up to about 1.1 µM and inactive = higher.
Possible outcomes: active, inactive

In [3]: df
Out[3]:
                                   molecule     class
0  O=C(Cc1ccc(Cl)c(Cl)c1)NCC1(N2CCCCC2)CCCCC1  inactive
1  O=C(Nc1cc2cc([N+](=O)[O-])ccc2oc1=O)c1cccs1  inactive
2     N=C(N)Nc1nc2cc([N+](=O)[O-])ccc2[nH]1  inactive
3       CCOC(=O)C1(C(=O)OCC)Nc2cccnc2N(C)N1  inactive
4  COc1cc(C2C=C(c3ccccc3)Oc3cc4c(cc32)OCO4)cc(OC)c1OC (stereo not given)    active
5  COc1ccc(-n2cnc3c(NC(Cc4ccccc4)C(=O)O)ncnc32)cc1 (stereo not given)  inactive
6  O=C1Sc2cc3ccccc3cc2C(=O)Sc2cc3ccccc3cc21  inactive
7  O=c1c2ccccc2c(=O)c2c1c1[nH]c3ccccc3c1c1c(=O)c3ccccc3c(=O)c21  inactive
8  CN(C)/C=C/C(=CC=[N+](C)C)/C=C/N(C)C.[O-][Cl+3]([O-])([O-])[O-]  inactive
9  COc1ccc2oc(S(=O)(=O)N3CC(CCl)c4ccc([N+](=O)[O-])cc43)cc2c1 (stereo not given)    active

----------
test system: KM-20L2; assay: NCI tumour cell line growth inhibition, 48 h
Calls of active or inactive are those of the source. Cut-off read from the data, not from the text of the source: active = GI50 up to about 1.1 µM and inactive = higher.
Outcomes: active, inactive

>>> df
                                   molecule     class
0  CN(C)CC1CCC(CN(C)C)C1=NO (stereo not given)  inactive
1  CSC(=Nc1nnc(-c2ccc([N+](=O)[O-])cc2)s1)SC  inactive
2  O=C(Nc1ccc([N+](=O)[O-])cc1C(=O)O)c1ccc([N+](=O)[O-])cc1  inactive
3  COc1cc(CCCC(O)COc2cccc3c2C2(O)CCCCCC32)cc(OC)c1 (stereo not given)  inactive
4  CC[C@@]1(OC(=O)C(N)CCC(=O)O)C(=O)OCc2c1cc1n(c2=O)Cc2cc3ccccc3nc2-1 (stereo not given in full)    active
5            N#C/C(=C\c1ccc(O)c(O)c1)C(N)=O  inactive
6  CC(=O)OCC1OC(OC2C(COC(C)=O)OC(Sc3ccccc3C)C(OC(C)=O)C2OC(C)=O)C(OC(C)=O)C(OC(C)=O)C1OC(C)=O (stereo not given)  inactive
7  CC1CCCP(=O)(c2ccccc2)CCC1 (stereo not given)  inactive
8  COc1ccc(/C=C/C(=O)c2cc(C(=O)O)c(OC)cc2OC)cc1OC  inactive
9  O=S1(=O)CCC2=CC(C(F)(F)F)=CC(C(F)(F)F)=CN21  inactive
